# Tested on: PLC biosensor
# Experimental Protocol: microbe, parasite or virus in culture
# Assay type: cell-based, E. coli BL21
# Measurement Conditions: Escherichia coli, BL21, read-out: Signal range (max/min), substrate screening, PLC biosensor, E. coli BL21
Measurement Kind: maximal fold induction
Simply state the number, no unit and no words.

Examples from the recorded data:
Q) Please report the measured maximal fold induction for COc1cccc(C=CC(=O)O)c1
A) 4.8

Q) Please report the measured maximal fold induction for O=C(O)C=Cc1ccc(O)cc1O [compound 7, 2,4-Dihydroxycinnamic acid]
A) 9.6

Q) Please report the measured maximal fold induction for O=C(O)C=Cc1ccc([N+](=O)[O-])cc1
A) 9.5

Q) Please report the measured maximal fold induction for COc1cc(/C=C/C(=O)O)cc(OC)c1O
A) 15.4

Proceed to the following item.
Q) Please report the measured maximal fold induction for O=C(O)/C=C/c1ccc(O)c(O)c1
A) 11.2
